biological target: T1, HER-2 (erbB-2), human receptor (human, UniProt P04626 23-1255); test: saturation binding to HER-2/3T3 cells, herstatin ELISA, nonlinear regression (FIG. 5B)
T1 construct: On HER-2-transfected Cos-7 cells or 3T3/HER-2 cells (cell ELISA), or from transfected Cos-7 cell extracts (pull-down)
outcome_measure: Kd (nM)
Express it in nM; write the number only.

Lookup result for RBD Int8 polypeptide (intron 8-encoded receptor binding domain of herstatin, expressed as a bacterial peptide) (Purified from BL-21 bacteria; also called Int8 RBD polypeptide; Int8 peptide; not shown: pET 30 vector-encoded tags (His tag used for nickel purification, S-protein tag used for immobilisation)) GTHSLPPRPAAVPVPLRMQPGPAHPVLSFLRPSWDLVSAFYSLPLAPLSPTSVPISPVSVGRGPDPDAHVAVDLSRYEG ; measured Kd: 66

Reference source for all entries: patent US20050272637A1
